Measurement Target: UniProtKB Q13304
Assay Overview: Calcium mobilization functional assay (GPR17 Ca2+ assay)
Assay type: cell-based
Design: host or cells: Flp-In T-REx CHO
Experimental Parameters: CHO hGPR17 cells, inhibition of 50 nM MDL29,951, Calcium 5 dye, FLIPR; read-out: Ca2+ assay pIC50 (converted)
Kindly supply the reported IC50 values for the records listed here.

// query Which IC50 is listed for N#Cc1ccc(NS(=O)(=O)c2c[nH]c3nc(Cl)ccc23)c(F)c1 [Compound I-108] ?
// result 0.00316 to 0.0316 µM

// query Further, for COc1ccc2c(S(=O)(=O)Nc3ccc(Cl)cc3F)c[nH]c2c1 [Compound I-69] ?
// result > 0.0316 µM

// query Further, for O=S(=O)(Nc1ccc(C(F)(F)F)cc1F)c1c[nH]c2nc(Cl)ccc12 [Compound I-296] ?
// result 0.00316 to 0.0316 µM

// query Further, for O=S(=O)(Nc1cccc2nsnc12)c1c[nH]c2cc(F)cc(F)c12 [Compound I-166] ?
// result > 0.0316 µM

// query Further, for O=S(=O)(Nc1cc(F)ccc1F)c1c[nH]c2cc(F)ccc12 [Compound I-37] ?
// result > 0.0316 µM

// query Further, for N#Cc1ccc(NS(=O)(=O)c2c[nH]c3cc(C(F)(F)F)ccc23)c(F)c1 [Compound I-189] ?
// result < 0.00316 µM

// query Further, for CC(C#N)c1ccc(NS(=O)(=O)c2c[nH]c3cc(Cl)ccc23)c(F)c1 (centres unmarked) [Compound I-207] ?
// result > 0.0316 µM

// query Further, for CCOC(=O)CCc1cc(F)c(NS(=O)(=O)c2c[nH]c3cc(Cl)ccc23)nc1F [Compound I-331] ?
// result < 0.00316 µM

---

Kindly supply the reported IC50 values for the records listed here.
Measurement Target: GPR17 (Homo sapiens)
Assay Overview: Calcium mobilization functional assay (GPR17 Ca2+ assay)
Assay type: cell-based
Parameters: host or cells: Flp-In T-REx CHO
Experimental Parameters: CHO hGPR17 cells, inhibition of 50 nM MDL29,951, Calcium 5 dye, FLIPR; read-out: Ca2+ assay pIC50 (converted)

// query Which IC50 is listed for `O=S(=O)(Nc1cccc2c1OC(F)(F)O2)c1c[nH]c2nc(Br)ccc12` ?
// result 3.16 to 31.6 nM

// query Further, for `O=S(=O)(Nc1cccc(Cl)n1)c1c[nH]c2cc(Cl)ccc12` ?
// result > 31.6 nM

// query Further, for `O=S(=O)(Nc1cc(F)c(F)cc1F)c1c[nH]c2nc(Cl)ccc12` ?
// result 3.16 to 31.6 nM

// query Further, for `O=S(=O)(Nc1ccc(Cl)cc1F)c1c[nH]c2nc(Br)ccc12` ?
// result 3.16 to 31.6 nM

// query Further, for `O=S(=O)(Nc1nc(F)c(Br)cc1F)c1c[nH]c2cc(Cl)ccc12` ?
// result < 3.16 nM

// query Further, for `O=S(=O)(Nc1cc(F)c(Cl)cc1F)c1c[nH]c2cc(-c3ccsc3)ccc12` ?
// result > 31.6 nM

// query Further, for `Cc1cc(F)c(NS(=O)(=O)c2c[nH]c3c(F)c(Cl)ccc23)nc1F` ?
// result < 3.16 nM

// query Further, for `Cc1cc(NS(=O)(=O)c2c[nH]c3cc(Cl)ccc23)ccc1C#N` ?
// result > 31.6 nM

---

Measurement Target: GPR17 (Homo sapiens, UniProt Q13304)
Sequence (Q13304 whole entry): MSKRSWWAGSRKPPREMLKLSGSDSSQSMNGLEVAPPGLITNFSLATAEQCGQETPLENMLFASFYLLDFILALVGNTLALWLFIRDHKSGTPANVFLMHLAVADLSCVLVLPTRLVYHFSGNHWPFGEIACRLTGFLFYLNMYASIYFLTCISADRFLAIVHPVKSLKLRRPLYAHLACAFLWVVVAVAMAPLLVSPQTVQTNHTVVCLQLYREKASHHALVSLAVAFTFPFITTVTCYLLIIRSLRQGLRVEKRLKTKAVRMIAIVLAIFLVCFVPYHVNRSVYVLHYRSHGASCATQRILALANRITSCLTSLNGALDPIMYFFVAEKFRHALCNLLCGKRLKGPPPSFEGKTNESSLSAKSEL
Assay Overview: cAMP accumulation functional assay (HTRF, Schild analysis)
Type: cell-based
Parameters: host or cells: Flp-In T-REx CHO
Experimental Parameters: CHO hGPR17 cells, Schild analysis vs MDL29,951, 5 μM forskolin, read-out: cAMP assay pA2 (converted)
Kindly supply the reported Kb values for the records listed here.

// query Request body: readout Kb, system GPR17 (Homo sapiens, UniProt Q13304), query `C#Cc1ccc(NS(=O)(=O)c2c[nH]c3c2ccc2cccnc23)c(F)c1` . Return the value.
// result < 3.16 nM

// query Further, for `COc1ccc2c(S(=O)(=O)Nc3ccc(Cl)cc3F)c[nH]c2c1` ?
// result > 31.6 nM

// query Further, for `O=S(=O)(Nc1cc(F)c(Cl)cc1F)c1c[nH]c2cc(Cl)ccc12` ?
// result < 3.16 nM

// query Further, for `O=S(=O)(Nc1cc2nsnc2cc1F)c1c[nH]c2cc(Br)ccc12` ?
// result < 3.16 nM

// query Further, for `CS(=O)(=O)c1c(Cl)ccc2c(S(=O)(=O)Nc3cc(F)c(Cl)cc3F)c[nH]c12` ?
// result 3.16 to 31.6 nM

// query Further, for `N#Cc1ccc(NS(=O)(=O)c2c[nH]c3ncc(I)cc23)cc1` ?
// result > 31.6 nM

// query Further, for `O=S(=O)(Nc1nc(F)ccc1F)c1c[nH]c2cc(Cl)ccc12` ?
// result 3.16 to 31.6 nM

// query Further, for `O=S(=O)(Nc1cc(F)c(F)cc1F)c1c[nH]c2c1ccc1cccnc12` ?
// result 3.16 to 31.6 nM

// query Further, for `N#CCc1cc(F)c(NS(=O)(=O)c2c[nH]c3c2ccc2cccnc23)cc1F` ?
// result < 3.16 nM

// query Further, for `O=S(=O)(Nc1ccc(I)cc1F)c1c[nH]c2nc(Br)ccc12` ?
// result < 3.16 nM

// query Further, for `COc1nc(NS(=O)(=O)c2c[nH]c3cc(Cl)c(Br)cc23)c(F)cc1CC#N` ?
// result < 3.16 nM

// query Further, for `N#Cc1cc(F)c(NS(=O)(=O)c2c[nH]c3cc(Br)ccc23)cc1F` ?
// result < 3.16 nM

// query Further, for `[N-]=[N+]=Nc1ccc(NS(=O)(=O)c2c[nH]c3cc(Cl)ccc23)c(F)c1` ?
// result 3.16 to 31.6 nM

// query Further, for `COc1cnc(NS(=O)(=O)c2c[nH]c3cc(Cl)ccc23)c(OC)c1` ?
// result > 31.6 nM

// query Further, for `CC(=O)c1ccc(NS(=O)(=O)c2c[nH]c3cc(Cl)ccc23)c(F)c1` ?
// result 3.16 to 31.6 nM

// query Further, for `N#Cc1ccc(NS(=O)(=O)c2c[nH]c3c4c(ccc23)CCC4)c(F)c1` ?
// result < 3.16 nM

// query Further, for `N#Cc1cc(F)c(NS(=O)(=O)c2c[nH]c3cc(Cl)ccc23)cc1F` ?
// result < 3.16 nM

---

Measurement Target: GPR17 (Homo sapiens)
Assay Overview: Calcium mobilization functional assay (GPR17 Ca2+ assay)
Assay type: cell-based
Parameters: host or cells: Flp-In T-REx CHO
Experimental Parameters: CHO hGPR17 cells, inhibition of 50 nM MDL29,951, Calcium 5 dye, FLIPR; read-out: Ca2+ assay pIC50 (converted)
Measure: IC50

// query Which IC50 is listed for O=S(=O)(Nc1ccc(Cl)cc1F)c1c[nH]c2c1ccc1cccnc12 [Compound I-65] ?
// result 3.16 to 31.6 nM

// query Further, for O=S(=O)(Nc1cccc2nsnc12)c1c[nH]c2c3c(ccc12)CCC3 [Compound I-74] ?
// result > 31.6 nM

// query Further, for O=S(=O)(Nc1cc(F)c(F)cc1F)c1c[nH]c2cc3c(cc12)OCO3 [Compound I-46] ?
// result > 31.6 nM

// query Further, for O=S(=O)(Nc1cc(F)c(Br)cc1F)c1c[nH]c2cc(Cl)ccc12 [Compound I-213] ?
// result < 3.16 nM

// query Further, for O=C1OCc2cc(F)c(NS(=O)(=O)c3c[nH]c4cc(Cl)ccc34)cc21 [Compound I-243] ?
// result 3.16 to 31.6 nM

// query Further, for O=S(=O)(Nc1cc2c(cc1F)OC(F)(F)O2)c1c[nH]c2cc(Cl)ccc12 [Compound I-125] ?
// result 3.16 to 31.6 nM

// query Further, for COc1cnc(NS(=O)(=O)c2c[nH]c3cc(Cl)ccc23)c(OC)c1 [Compound I-264] ?
// result > 31.6 nM

// query Further, for COc1cc(Br)cnc1NS(=O)(=O)c1c[nH]c2cc(Cl)ccc12 [Compound I-129] ?
// result 3.16 to 31.6 nM

---

Measurement Target: UniProt:Q13304
Assay Overview: cAMP accumulation functional assay (HTRF, Schild analysis)
Assay type: cell-based
Design: host or cells: Flp-In T-REx CHO
Experimental Parameters: CHO hGPR17 cells, Schild analysis vs MDL29,951, 5 μM forskolin, read-out: cAMP assay pA2 (converted)
Measure: Kb

// query Which Kb is listed for `COc1cc(Cl)c(F)cc1NS(=O)(=O)c1c[nH]c2cc(Cl)ccc12` ?
// result 3.16 to 31.6 nM

// query Further, for `CS(=O)(=O)c1ccc2c(S(=O)(=O)Nc3ccc(I)cc3F)c[nH]c2c1` ?
// result 3.16 to 31.6 nM

// query Further, for `CCOC(=O)/C=C/c1cc(F)c(NS(=O)(=O)c2c[nH]c3cc(Cl)ccc23)nc1F` ?
// result < 3.16 nM

// query Further, for `N#Cc1cc(F)c(NS(=O)(=O)c2c[nH]c3cc(Cl)ccc23)c(F)c1` ?
// result 3.16 to 31.6 nM

// query Further, for `N#Cc1ccc(NS(=O)(=O)c2csc3cc(Cl)ccc23)cc1` ?
// result 3.16 to 31.6 nM

// query Further, for `COc1nc(NS(=O)(=O)c2c[nH]c3cc(N=[N+]=[N-])ccc23)c(F)cc1CC#N` ?
// result < 3.16 nM

// query Further, for `N#CCCc1cc(F)c(NS(=O)(=O)c2c[nH]c3c2ccc2cccnc23)cc1F` ?
// result < 3.16 nM

// query Further, for CCOC(=O)C1CC1c1cc(F)c(NS(=O)(=O)c2c[nH]c3cc(Cl)ccc23)nc1F (centres unmarked) ?
// result 3.16 to 31.6 nM

// query Further, for `COc1nc(NS(=O)(=O)c2csc3cc(Cl)ccc23)c(F)cc1CC#N` ?
// result < 3.16 nM

// query Further, for `COc1nc(NS(=O)(=O)c2c[nH]c3cc([N+](=O)[O-])ccc23)c(F)cc1CC#N` ?
// result 3.16 to 31.6 nM

// query Further, for `O=S(=O)(Nc1cc(F)ccc1F)c1c[nH]c2cc(Cl)ccc12` ?
// result 3.16 to 31.6 nM

// query Further, for `COc1nc(NS(=O)(=O)c2c[nH]c3cc(Cl)ccc23)c(F)cc1CC#N` ?
// result < 3.16 nM

// query Further, for `COCCCc1cc(F)c(NS(=O)(=O)c2c[nH]c3cc(Cl)ccc23)nc1F` ?
// result < 3.16 nM

// query Further, for `O=S(=O)(Nc1ccc(Cl)cc1F)c1c[nH]c2nc(Cl)ccc12` ?
// result 3.16 to 31.6 nM

// query Further, for `COc1nc(NS(=O)(=O)c2c[nH]c3c(F)c(Cl)ccc23)c(F)cc1CC#N` ?
// result < 3.16 nM

// query Further, for C[S+]([O-])c1ccc2c(S(=O)(=O)Nc3ccc(C#N)cc3)c[nH]c2c1 (centres unmarked) ?
// result > 31.6 nM

// query Further, for `N#Cc1ccc(NS(=O)(=O)c2c[nH]c3nc(Cl)ccc23)c(F)c1` ?
// result 3.16 to 31.6 nM
